- method_notes: Solubility in water and formulation vehicles
- conditions: 2% Tween 80/03% MC, aqueous with cosolvent or surfactant or cyclodextrin, Solubility, Table 4; (batch size 95, 50, 120, 54, 18.5, 550 g)

molecule: COc1cc(Nc2c(C#N)cnc3cc(OCCCN4CCN(C)CC4)c(OC)cc23)c(Cl)cc1Cl [Form IV]
output_unit: µg/mL
solubility: 70

====

- method_notes: Solubility in water and formulation vehicles
- conditions: stomach acid, simulated gastric fluid, solubility in stomach acid
endpoint_name: solubility

structure: COc1cc(Nc2c(C#N)cnc3cc(OCCCN4CCN(C)CC4)c(OC)cc23)c(Cl)cc1Cl
measurement: > 200 mg/mL

====

- method_notes: Solubility in water and formulation vehicles
- conditions: about 2% Tween80, aqueous with cosolvent or surfactant or cyclodextrin, solubility with addition of about 2% Tween80, about 2% Tween80 (detergent)
endpoint_name: solubility

structure: COc1cc(Nc2c(C#N)cnc3cc(OCCCN4CCN(C)CC4)c(OC)cc23)c(Cl)cc1Cl
endpoint_name: solubility
measurement: 100 to 400 µg/mL

====

- method_notes: physchem
- conditions: aqueous with cosolvent or surfactant or cyclodextrin, 2% Tween80/0.5% MC 0.06% acetic acid, Table 4, (batch size 95, 50, 120, 54, 18.5, 550 g)

molecule: COc1cc(Nc2c(C#N)cnc3cc(OCCCN4CCN(C)CC4)c(OC)cc23)c(Cl)cc1Cl.O [Form I]
output_unit: µg/mL
solubility: 4000

====

- method_notes: Solubility in water and formulation vehicles
- conditions: pH 8, aqueous buffer, intrinsic (neutral form) solubility, pH 8.0

structure: COc1cc(Nc2c(C#N)cnc3cc(OCCCN4CCN(C)CC4)c(OC)cc23)c(Cl)cc1Cl
solubility: ~0.06 µg/mL

====

- method_notes: physchem
- conditions: pH 7.2, water, Water, Table 4, (batch size 95, 50, 120, 54, 18.5, 550 g)
endpoint_name: solubility (µg/mL)

compound: COc1cc(Nc2c(C#N)cnc3cc(OCCCN4CCN(C)CC4)c(OC)cc23)c(Cl)cc1Cl.O [Form I]
measurement: 1.8

====

- method_notes: Solubility in water and formulation vehicles
- conditions: de-ionized water, pH 7.2, water, solubility in de-ionized water, partially ionized; resulting pH 7.2
endpoint_name: solubility (µg/mL)

structure: COc1cc(Nc2c(C#N)cnc3cc(OCCCN4CCN(C)CC4)c(OC)cc23)c(Cl)cc1Cl
measurement: 1.8
